Data provenance: patent US20170326246A1

# systemTested: gp120 of viral strain MN (HIV, strain MN, UniProt P05877 32-513)
# measurementProtocol: cell-based or functional assay
*1 amine or outer side, *2 acyl side, *3 side chain or, on linkers, in order; H or OH if unused. [ ]: non-standard residue; d: D form. U1 = 4-cyclohexylmethoxy-L-phenylalanine, O=C([C@H](Cc1ccc(OCC2CCCCC2)cc1)N[*:1])[*:2]; Bip = N[C@@H](Cc1ccc(-c2ccccc2)cc1)C(=O)O; Tpa = thiopropionic acid
Kindly state EC50 (antiviral activity, TZM-bl cells, luciferase) for each of the entries shown.
Field: value (include unit after the number)

Some solved cases for reference:
{"binder": "Tpa-NLHKCQLRCSSLGLLGRCA[dP]T[U1]CACV-NH2 (disulfide (positions not given here)) [mCD4.2]", "result": "0.6 nM"}
{"binder": "mCD4.3-PS1 (not fully specified; N-terminal gamma-aminobutyric acid (gammaAbu) acylated with 3-thiopropionyl (from SATP); all six Tyr are sulfotyrosine (YSO3); N-terminal Tpa; D-proline at position 21; U1 (4-cyclohexylmethoxy-L-phenylalanine) at position 23; C-terminal amide; Lys5 N-epsilon carries the PEO2-maleimide linker bound to the thiol of the PS1 chain) peptide 1: NLHKCQLRCRSLGLLGRCAPTFCACV peptide 2: SYDYSYDYSYDYS", "result": "0.026 nM"}
{"binder": "Tpa-NLHKCQLRCSSLGLLGRCAGS[Bip]CACV-NH2 (disulfide (positions not given here); also: three disulphide bridges, pairing not given here) [mCD4.1]", "result": "20 nM"}
{"binder": "Tpa-NLHKCQLRCRSLGLLGRCA[dP]T[U1]CACV-NH2 (disulfide (positions not given here)) [mCD4.3]", "result": "0.37 nM"}
{"binder": "mCD4.2-PS1 (not fully specified; N-terminal gamma-aminobutyric acid (gammaAbu) acylated with 3-thiopropionyl (from SATP); all six Tyr are sulfotyrosine (YSO3); N-terminal Tpa; D-proline at position 21; U1 (4-cyclohexylmethoxy-L-phenylalanine) at position 23; C-terminal amide; Lys5 N-epsilon carries the PEO2-maleimide linker bound to the thiol of the PS1 chain) peptide 1: NLHKCQLRCSSLGLLGRCAPTFCACV peptide 2: SYDYSYDYSYDYS", "result": "0.046 nM"}

Give EC50 (antiviral activity, TZM-bl cells, luciferase) for each of the items listed below.
1. Tpa-NLHFCQLRCKSLGLLGRCA[dP]T[U1]CACV-NH2 (disulfide (positions not given here)) [M48U1]
2. mCD4.1-PS1 (N-terminal gamma-aminobutyric acid (gammaAbu) acylated with 3-thiopropionyl (from SATP); all six Tyr are sulfotyrosine (YSO3); N-terminal Tpa (thiopropionic acid); Bip at position 23; C-terminal …; Lys5 N-epsilon carries the PEO2-maleimide linker bound to the thiol of the PS1 chain) peptide 1: NLHKCQLRCSSLGLLGRCAGSFCACV peptide 2: SYDYSYDYSYDYS
3. M48U1-PS1 (not fully specified; N-terminal gamma-aminobutyric acid (gammaAbu) acylated with 3-thiopropionyl (from SATP); all six Tyr are sulfotyrosine (YSO3); N-terminal Tpa; D-proline at position 21; U1 (4-cyclohexylmethoxy-L-phenylalanine) at position 23; C-terminal amide; Lys11 N-epsilon carries the PEO2-maleimide linker bound to the thiol of the PS1 chain) peptide 1: NLHFCQLRCKSLGLLGRCAPTFCACV peptide 2: SYDYSYDYSYDYS

Reply:
1: 0.25 nM; 2: 0.08 nM; 3: 0.12 nM
